Values were extracted from patent US20250084172A1.

Target: T1, cell surface ULBP6_01 on COV644 cells (human, UniProt Q5VY80 27-218)
T1 construct: whole, on cells; also called cell surface ULBP6 (COV644)
T1 chain: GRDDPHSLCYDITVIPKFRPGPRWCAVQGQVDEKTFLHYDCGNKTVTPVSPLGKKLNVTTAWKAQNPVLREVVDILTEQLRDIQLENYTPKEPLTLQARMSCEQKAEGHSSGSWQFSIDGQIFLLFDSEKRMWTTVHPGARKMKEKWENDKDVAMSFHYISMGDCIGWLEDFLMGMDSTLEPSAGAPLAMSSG
Experiment: flow cytometry on COV644 cells, anti-hFc-APC detection, average of 2 replicates
outcome measure: pEC50
// field semantics: pEC50 = negative decimal log of concentration (mol/L)

Below, each entry is followed by its recorded pEC50 result.
binder | pEC50
humanized 6E1 (h6E1), Fc version not stated (antibody, V domains shown, Recombinant humanized antibody, hIgG1 backbone with kappa light chain; also called hu6E1; PUR3993) VH: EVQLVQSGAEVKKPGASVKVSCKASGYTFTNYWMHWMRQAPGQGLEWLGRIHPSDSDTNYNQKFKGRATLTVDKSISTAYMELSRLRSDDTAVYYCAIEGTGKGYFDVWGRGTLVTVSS VL: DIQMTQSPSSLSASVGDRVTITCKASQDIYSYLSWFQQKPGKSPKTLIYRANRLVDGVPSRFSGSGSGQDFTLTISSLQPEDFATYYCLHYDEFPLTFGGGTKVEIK | 9.44
humanized 1D4 (h1D4), Fc version not stated (antibody, V domains shown, Recombinant humanized antibody, hIgG1 backbone with kappa light chain; also called hiD4; hu1D4) VH: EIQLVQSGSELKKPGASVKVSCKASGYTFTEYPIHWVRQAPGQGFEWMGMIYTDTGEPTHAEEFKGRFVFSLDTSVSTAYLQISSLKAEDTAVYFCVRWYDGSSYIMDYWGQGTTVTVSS VL: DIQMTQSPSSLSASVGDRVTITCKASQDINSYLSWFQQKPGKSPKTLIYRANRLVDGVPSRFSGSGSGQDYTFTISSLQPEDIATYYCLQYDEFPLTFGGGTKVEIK | 8.85
humanized 8E11 (h8E11), Fc version not stated (antibody, V domains shown, Recombinant humanized antibody, hIgG1 backbone with kappa light chain; also called PUR3926) VH: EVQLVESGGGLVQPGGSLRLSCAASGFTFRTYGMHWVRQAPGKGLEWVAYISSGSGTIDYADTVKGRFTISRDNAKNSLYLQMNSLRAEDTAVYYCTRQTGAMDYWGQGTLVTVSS VL: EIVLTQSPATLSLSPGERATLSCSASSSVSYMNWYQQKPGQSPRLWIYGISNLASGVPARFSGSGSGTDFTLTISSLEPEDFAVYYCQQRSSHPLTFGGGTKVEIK | 8.89

Here is the next item to consider.
Answer with the recorded pEC50 for the binder listed here: humanized 7B3 (h7B3), Fc version not stated (antibody, V domains shown, Recombinant humanized antibody, hIgG1 backbone with kappa light chain; also called hu7B3; PUR3922) VH: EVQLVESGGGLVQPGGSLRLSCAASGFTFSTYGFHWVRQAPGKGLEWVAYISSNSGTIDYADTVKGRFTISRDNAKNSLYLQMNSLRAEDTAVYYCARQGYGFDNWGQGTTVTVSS VL: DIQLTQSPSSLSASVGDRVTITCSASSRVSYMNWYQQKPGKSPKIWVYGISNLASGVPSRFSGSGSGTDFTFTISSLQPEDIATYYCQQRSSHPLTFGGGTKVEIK
8.71
